# tested_target: Peroxisome proliferator-activated receptor gamma (Homo sapiens)
# experimental_details: Agonist activity at Homo sapiens (human) PPARgamma LBD expressed in African green monkey CV-1 cells co-expressing GAL4 assessed as beta-galactosidase activity at 10 uM after 24 hr by luciferase reporter gene assay relative to rosiglitazone
# Assay type: cell-based
Listing of recorded %max by entry.

Illustrative cases are given below, each with its answer.
COC(=O)c1ccc(-c2ccc(Cn3c(C)nc4ccc(-c5nc6ccccc6n5C)cc43)cc2)cc1 7.3%
COC(=O)c1ccc(-c2ccc(Cn3c(C)nc4ccc(-c5nc6ccccc6n5C)cc43)cc2)c(C(=O)OC)c1 2.8%
COC(=O)c1ccccc1-c1ccc(Cn2c(C)nc3ccc(-c4nc5ccccc5n4C)cc32)cc1 6.8%

%max value, target or system Peroxisome proliferator-activated receptor gamma (Homo sapiens), for COC(=O)c1ccccc1-c1ccc(Cn2cnc3ccc(-c4nc5ccccc5n4C)cc32)cc1 : 6.3%

Summary line: COC(=O)c1ccccc1-c1ccc(Cn2cnc3ccccc32)cc1 , Peroxisome proliferator-activated receptor gamma (Homo sapiens), reported %max = 1.8%

For COC(=O)c1ccc(-c2ccc(Cn3cnc4ccc(-c5nc6ccccc6n5C)cc43)cc2)cc1 on Peroxisome proliferator-activated receptor gamma (Homo sapiens), measured %max was 3.6%

%max of COC(=O)c1ccc(-c2ccc(Cn3cnc4ccc(-c5nc6ccccc6n5C)cc43)cc2)c(C(=O)OC)c1 , assay on Peroxisome proliferator-activated receptor gamma (Homo sapiens), is 5.7%

Value (%max, Peroxisome proliferator-activated receptor gamma (Homo sapiens)) for record CCCc1nc2c(C)cc(-c3nc4ccccc4n3C)cc2n1Cc1ccc(-c2ccccc2C(=O)O)cc1 = 21.2%

* * *

# tested_target: Peroxisome proliferator-activated receptor gamma (Homo sapiens)
# experimental_details: Agonist activity at Homo sapiens (human) PPARgamma LBD expressed in African green monkey CV-1 cells co-expressing GAL4 assessed as beta-galactosidase activity at 10 uM after 24 hr by luciferase reporter gene assay relative to rosiglitazone
# Format: cell-based
attribute_measured: %max (%)

Cn1c(-c2ccc3ncn(Cc4ccc(-c5ccccc5)cc4)c3c2)nc2ccccc21 5.7

P: COC(=O)c1ccccc1-c1ccc(Cn2cnc3c(C)cccc32)cc1
Q: CCCc1nc2c(C)cc(-c3nc4ccccc4n3C)cc2n1Cc1ccc(-c2ccc(C(=O)OC)cc2C(=O)OC)cc1
# argmax over %max for candidates P and Q Your answer should be the label attached to the chosen record.
Q

* * *

// values below are Ki; system is Type-1 angiotensin II receptor A (Rattus norvegicus, UniProt P25095)
Sequence (P25095 whole entry): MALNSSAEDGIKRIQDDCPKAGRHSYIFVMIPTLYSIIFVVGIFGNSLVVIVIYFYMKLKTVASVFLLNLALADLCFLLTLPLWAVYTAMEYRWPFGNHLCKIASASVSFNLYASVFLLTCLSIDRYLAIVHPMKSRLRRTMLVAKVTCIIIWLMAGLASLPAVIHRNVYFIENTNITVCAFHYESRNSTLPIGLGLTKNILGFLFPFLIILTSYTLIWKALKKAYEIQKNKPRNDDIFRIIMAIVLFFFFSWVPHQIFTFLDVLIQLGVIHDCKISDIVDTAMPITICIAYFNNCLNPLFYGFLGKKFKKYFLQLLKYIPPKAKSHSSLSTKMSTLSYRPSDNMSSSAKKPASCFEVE

Here's what some known entries look like.
CCCc1nc2c(C)cc(-c3nc4ccccc4n3C)cc2n1Cc1ccc(-c2ccc(C(=O)O)cc2C(=O)O)cc1 0.188 µM
COC(=O)c1ccccc1-c1ccc(Cn2cnc3c(C)cccc32)cc1 > 10 µM

In the following, a different compound is considered.
Case COC(=O)c1ccc(-c2ccc(Cn3c(C)nc4ccc(-c5nc6ccccc6n5C)cc43)cc2)cc1 , Type-1 angiotensin II receptor A (Rattus norvegicus, UniProt P25095), Ki recorded as > 10 µM
